# study-system: T1, human VEGFA165 (human, UniProt P15692-4 27-191)
# T1 construct: Bought protein from two suppliers, treated as one molecule; the supplier is named under assay; also called antigen VEGFA
# T1 sequence (P15692 other isoform, or with tags, fused parts or gaps limits assumed): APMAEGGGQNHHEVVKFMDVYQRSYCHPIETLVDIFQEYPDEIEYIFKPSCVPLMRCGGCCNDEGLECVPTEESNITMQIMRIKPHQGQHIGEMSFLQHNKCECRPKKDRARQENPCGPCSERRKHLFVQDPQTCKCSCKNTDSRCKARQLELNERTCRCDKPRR
# assay-summary: ELISA, coated human VEGFA165, anti-His detection
property-name: pEC50
The value called pEC50 is obtained by taking minus log10 of the concentration in mol/L.

Q: Return reported pEC50; argument: 2V43-1H-2m-3GS (VHH, Tandem bivalent humanized nanobody) EVQLVESGGGLVQPGGSLRLSCAASGRTFSSYTMGWFRQAPGKEREFVVAISKGGYKYDSVSLEARFTISRDNSKNTVYLQMNSLRPEDTAVYYCAATRAYGSSRLRLANTYEYWGQGTLVTVSSGGSEVQLVESGGGLVQPGGSLRLSCAASGRTFSSYTMGWFRQAPGKEREFVVAISKGGYKYDSVSLEARFTISRDNSKNTVYLQMNSLRPEDTAVYYCAATRAYGSSRLRLANTYEYWGQGTLVTVSS
Result: 8.92

Reference source for all entries: patent US20260234232A1
